Test: Microsomal stability assay, human liver microsomes;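 also: pooled human liver microsomes at 0.25 mg/mL with 1 µM compound and NADPH at 37 °C, pH 7.4, for 30 min, unchanged parent quantified by LC-MS/MS against the 0 min sample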
Settings: human liver microsomes
MEASURED QUANTITY: HLM (µL/min/mg)

INSERT INTO measurements (molecule, measured_quantity, units_of_measure, recorded_measurement) VALUES
  ('CO[C@H](C)C(=O)N[C@@H](Cc1cc(F)cc(F)c1)[C@H](O)CN[C@H]1CC2(CCC2)Oc2c(-c3ccncc3)cc(CC(C)C)cc21', 'HLM', 'µL/min/mg', 29),
  ('CC(=O)N[C@@H](Cc1cc(F)cc(-c2ccncc2)c1)[C@H](O)CN[C@H]1CC2(CCC2)Oc2ccc(CC(C)(C)C)cc21', 'HLM', 'µL/min/mg', 492),
  ('CC(=O)N[C@@H](Cc1ccc(F)c(-c2nccs2)c1)[C@H](O)CN[C@H]1CC2(CCC2)Oc2ccc(CC(C)(C)C)cc21', 'HLM', 'µL/min/mg', 59),
  ('CC(=O)N[C@@H](Cc1cc(F)cc(-c2nccs2)c1)[C@H](O)CN[C@H]1CC2(CCC2)Oc2ncc(CC(C)(C)C)cc21 [Example 435]', 'HLM', 'µL/min/mg', 125),
  ('CO[C@H](C)C(=O)N[C@@H](Cc1cc(F)cc(F)c1)[C@H](O)CN[C@H]1CC2(CCC2)Oc2c1cc(C1CC1)cc2-n1ccnc1', 'HLM', 'µL/min/mg', 14),
  ('COCC(=O)N[C@@H](Cc1cc(F)cc(F)c1)[C@H](O)CN[C@H]1CC2(CCC2)Oc2c1cc(CC(C)C)nc2-c1cncn1C', 'HLM', 'µL/min/mg', 19);

---

Target: Beta Secretase enzyme (BACE) (Homo sapiens)
Sequence (P56817 46-501): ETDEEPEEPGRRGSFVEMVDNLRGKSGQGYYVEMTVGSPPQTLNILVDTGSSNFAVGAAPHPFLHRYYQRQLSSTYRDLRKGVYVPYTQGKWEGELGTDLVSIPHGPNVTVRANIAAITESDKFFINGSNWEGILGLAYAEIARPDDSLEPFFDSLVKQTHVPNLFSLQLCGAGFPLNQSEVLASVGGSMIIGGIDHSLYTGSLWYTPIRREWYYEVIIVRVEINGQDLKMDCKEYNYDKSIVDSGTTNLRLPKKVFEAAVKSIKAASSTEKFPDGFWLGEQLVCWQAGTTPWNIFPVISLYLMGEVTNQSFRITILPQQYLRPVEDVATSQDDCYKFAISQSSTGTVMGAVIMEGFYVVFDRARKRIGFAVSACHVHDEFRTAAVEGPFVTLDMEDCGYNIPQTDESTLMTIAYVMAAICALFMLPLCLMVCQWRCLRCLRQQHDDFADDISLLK
Assay: In vitro enzymatic BACE FRET (fluorescence resonance energy transfer) assay;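 also: fluorescence read after 1 h with 50 nM quenched peptide substrate spanning the BACE cleavage site, in pH 4.2 acetate buffer containing 10% DMSO and nonionic detergent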
Type: biochemical
Conditions: read-out: BACE1 FRET assay (IC50)
Quick reference for IC50 among some compounds
MEASURED QUANTITY: IC50 (nM)

INSERT INTO assay_data (compound, measured_quantity, units_of_measure, recorded_measurement) VALUES
  ('CC(=O)N[C@@H](Cc1cc(F)cc(-c2nccs2)c1)[C@H](O)CN[C@H]1CC2(CCC2)Oc2ncc(CC(C)(C)C)cc21 [Example 435]', 'IC50', 'nM', 6),
  ('CCOCC(=O)N[C@@H](Cc1cccc(F)c1)[C@H](O)CN[C@H]1CC2(CCC2)Oc2ncc(CC(C)(C)C)cc21', 'IC50', 'nM', 3),
  ('CO[C@H](C)C(=O)N[C@@H](Cc1cccc(C#N)c1)[C@H](O)CN[C@H]1CC2(CCC2)Oc2c(-c3ccncc3)cc(CC(C)(C)C)cc21', 'IC50', 'nM', 17),
  ('COCC(=O)N[C@@H](Cc1ccc2c(c1)OCO2)[C@H](O)CN[C@H]1CC2(CCC2)Oc2ncc([C@H]3CC3(C)C)cc21', 'IC50', 'nM', 328),
  ('C[C@H](F)C(=O)N[C@@H](Cc1cccc(F)c1)[C@H](O)CN[C@H]1CC2(CCC2)Oc2ncc(CC(C)(F)F)cc21', 'IC50', 'nM', 8),
  ('CC(=O)N[C@@H](Cc1cccc(-n2ccnc2)c1)[C@H](O)CN[C@H]1CC2(CCC2)Oc2ncc(CC(C)(C)C)cc21', 'IC50', 'nM', 60);

---

Target: CYP3A4 (CYP3A) (Homo sapiens, UniProt P08684);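 also: inhibition of CYP3A-mediated 1-hydroxymidazolam formation after 10 min incubation with NADPH, quantified by HPLC MS relative to metabolite produced without test compound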
Sequence (P08684 2-503): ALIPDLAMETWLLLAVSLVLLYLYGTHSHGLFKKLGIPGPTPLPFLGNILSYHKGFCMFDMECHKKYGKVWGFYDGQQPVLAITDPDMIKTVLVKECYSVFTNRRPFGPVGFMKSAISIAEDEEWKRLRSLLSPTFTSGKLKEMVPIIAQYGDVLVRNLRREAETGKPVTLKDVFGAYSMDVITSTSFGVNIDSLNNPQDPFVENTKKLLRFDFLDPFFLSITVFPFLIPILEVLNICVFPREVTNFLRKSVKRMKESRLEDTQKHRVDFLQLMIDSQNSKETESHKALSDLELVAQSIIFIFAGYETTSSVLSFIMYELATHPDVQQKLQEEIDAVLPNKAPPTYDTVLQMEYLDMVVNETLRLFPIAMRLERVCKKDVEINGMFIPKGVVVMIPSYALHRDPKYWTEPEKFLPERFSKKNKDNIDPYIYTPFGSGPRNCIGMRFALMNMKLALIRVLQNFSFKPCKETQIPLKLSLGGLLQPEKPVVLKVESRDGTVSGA
Experiment: in vitro
Conditions: microsomes, pH 7.4
pIC50: −log10 of the molar value.
Quick reference for pIC50 among some molecules
MEASURED QUANTITY: pIC50

INSERT INTO assay_data (test_smiles, cmp, recorded_measurement) VALUES
  ('CO[C@H](C)C(=O)N[C@@H](Cc1cccc(F)c1)[C@H](O)CN[C@H]1CC2(CCC2)Oc2c1cc(CC(C)C)cc2-n1ccnc1', '=', 7.00),
  ('COCC(=O)N[C@@H](Cc1ccc2c(c1)OCO2)[C@H](O)CN[C@H]1CC2(CCC2)Oc2cnc(CC(C)C)cc21', '≥', 7.52),
  ('COCC(=O)N[C@@H](Cc1ccc(F)cc1)[C@H](O)CN[C@H]1CC2(CCC2)Oc2c1cc(CC(C)(C)C)nc2-n1ccnc1', '=', 7.00),
  ('CO[C@H](C)C(=O)N[C@@H](Cc1ccc2c(c1)OCO2)[C@H](O)CN[C@@H]1c2cc(CC(C)(C)C)cnc2OC2(CCC2)[C@H]1F', '=', 7.00),
  ('CCOCC(=O)N[C@@H](Cc1cccc(-c2nccs2)c1)[C@H](O)CN[C@H]1CC2(CCC2)Oc2ncc([C@@H]3CC3(C)C)cc21', '=', 6.70),
  ('COC(OC)C(=O)N[C@@H](Cc1cc(F)cc(-c2nccs2)c1)[C@H](O)CN[C@H]1CC2(CCC2)Oc2ncc(CC(C)(F)F)cc21', '=', 6.22),
  ('COCC(=O)N[C@@H](Cc1cccc(F)c1)[C@H](O)CN[C@H]1CC2(CCC2)Oc2c1cc(C=C(C)C)cc2-n1ccnc1', '=', 6.70),
  ('COCC(=O)N[C@@H](Cc1cc(F)cc(F)c1)[C@H](O)CN[C@H]1CC2(CCC2)Oc2c1cc(CC(C)(C)C)nc2-c1cnc[nH]1', '=', 7.00),
  ('CC(C)(C)Cc1cnc2c(c1)[C@@H](NC[C@@H](O)[C@H](Cc1ccc3c(c1)OCO3)NC(=O)[C@@H]1CCO1)CC1(CCC1)O2', '=', 6.70),
  ('CCOCC(=O)N[C@@H](Cc1ccc2c(c1)OCO2)[C@H](O)CN[C@H]1CC2(CCC2)Oc2ncc(CC(C)(C)C)cc21', '=', 6.70),
  ('COCC(=O)N[C@@H](Cc1cc(F)cc(-c2nccs2)c1)[C@H](O)CN[C@H]1CC2(CCC2)Oc2ncc(CC(C)C)cc21', '=', 7.00),
  ('CCOCC(=O)N[C@@H](Cc1cccc(F)c1)[C@H](O)CN[C@H]1CC2(CCC2)Oc2ncc(CC(C)(C)C)cc21', '=', 6.70),
  ('CC(=O)N[C@@H](Cc1cc(F)cc(-c2cccnc2)c1)[C@H](O)CN[C@H]1CC2(CCC2)Oc2ccc(CC(C)(C)C)cc21', '=', 6.52);

---

Test: Microsomal stability assay, rat liver microsomes;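 also: rat liver microsomes (0.25 mg/mL) with about 1 µM compound plus 1 mM NADPH, pH 7.4, 37 °C for 30 min, parent left measured by LC-MS/MS against 0 min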
Details: rat liver microsomes
Quick reference for RLM among some compounds
MEASURED QUANTITY: RLM (µL/min/mg)

INSERT INTO assay_data (test_smiles, units_of_measure, recorded_measurement) VALUES
  ('COCC(=O)N[C@@H](Cc1ccc(F)c(F)c1)[C@H](O)CN[C@H]1CC(C)(C)Oc2ncc(CC(C)(C)C)cc21', 'µL/min/mg', 411),
  ('COCC(=O)N[C@@H](Cc1cccc(-n2ccnc2)c1)[C@H](O)CN[C@H]1CC2(CCC2)Oc2ncc(CC(C)(C)C)cc21', 'µL/min/mg', 33),
  ('C[C@H](F)C(=O)N[C@@H](Cc1cccc(F)c1)[C@H](O)CN[C@H]1CC2(CCC2)Oc2ncc(CC(C)(F)F)cc21', 'µL/min/mg', 183);

---

Target: UniProt:P10635
Sequence (P10635 whole entry): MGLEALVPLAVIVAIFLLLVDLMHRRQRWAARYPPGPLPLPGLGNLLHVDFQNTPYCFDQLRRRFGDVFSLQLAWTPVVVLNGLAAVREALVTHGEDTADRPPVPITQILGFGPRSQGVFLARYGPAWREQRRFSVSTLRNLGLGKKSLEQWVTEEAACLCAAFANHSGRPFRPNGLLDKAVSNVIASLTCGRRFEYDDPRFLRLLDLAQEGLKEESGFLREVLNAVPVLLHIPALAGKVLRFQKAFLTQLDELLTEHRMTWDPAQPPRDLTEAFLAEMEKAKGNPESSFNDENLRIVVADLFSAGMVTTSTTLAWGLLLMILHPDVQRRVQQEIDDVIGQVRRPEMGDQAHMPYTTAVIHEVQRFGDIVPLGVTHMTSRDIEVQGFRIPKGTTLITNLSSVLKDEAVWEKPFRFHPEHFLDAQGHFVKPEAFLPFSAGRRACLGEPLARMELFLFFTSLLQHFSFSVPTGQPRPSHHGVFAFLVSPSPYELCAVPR
Test: CYP2D6 inhibition assay (bufuralol, pooled human liver microsomes)
Settings: 2D6 IC50 (uM), CYP enzyme inhibition
Quick reference for IC50 among some compounds
MEASURED QUANTITY: IC50 (µM)

INSERT INTO assay_data (compound, system_tested, units_of_measure, recorded_measurement) VALUES
  ('COCC(=O)N[C@@H](Cc1cccc(F)c1)[C@H](O)CN[C@H]1CC2(CCC2)Oc2c1cc(CC(C)C)cc2-n1ccnc1 [compound 520]', 'UniProt:P10635', 'µM', 0.9),
  ('CC(C)(C)Cc1cnc2c(c1)[C@@H](NC[C@@H](O)[C@H](Cc1ccc(F)cc1)NC(=O)[C@@H]1CN(Cc3nccs3)CCO1)CC1(CCC1)O2 [compound 769]', 'UniProt:P10635', 'µM', 5.2),
  ('COCC(=O)N[C@@H](Cc1cccc(F)c1)[C@H](O)CN[C@@H]1CC2(CCC2)Oc2c1cc(CC(C)(C)C)nc2-n1ccnc1 [compound 502]', 'UniProt:P10635', 'µM', 0.8),
  ('CO[C@H](C)C(=O)N[C@@H](Cc1cc(F)cc(-c2nccs2)c1)[C@H](O)CNC1CC2(CCC2)Oc2ncc(CC(C)(F)F)cc21 (stereo partly drawn) [compound 765]', 'UniProt:P10635', 'µM', 0.7),
  ('COCC(=O)N[C@@H](Cc1cc(F)cc(-c2nccs2)c1)[C@H](O)CN[C@H]1CC2(CCC2)Oc2ccc(CC(C)C)cc21 [compound 771]', 'UniProt:P10635', 'µM', 0.5),
  ('COCC(=O)N[C@@H](Cc1cccc(F)c1)[C@H](O)CN[C@H]1CC2(CCC2)Oc2c1cc(CC(C)(C)C)nc2-n1ccnc1 [Example 504]', 'UniProt:P10635', 'µM', 2.3);
